Origin of the recorded values: PubChem BioAssay (EPA / NIEHS)

Read-out: Thrombomodulin, THBD (gene 7056)
Test: BSK_CASM3C_Thrombomodulin: BioMAP Diversity Plus: CASM3C Assay for Thrombomodulin Biomarker Activity (AID 2283051);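 also: thrombomodulin protein level measured by ELISA 24 h after dosing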
Conditions: primary human coronary artery smooth muscle cells; actives raise or lower the signal
Calls of active or inactive are those of the source. The calls were made as follows: active = hit-call score of the fitted dose curve at least 0.9, where 1 is the maximum; inactive = score below 0.9.
Pick one and only one: active, inactive

Before answering, review these 3 worked examples.
CCCCOCCOCCOCc1cc2c(cc1CCC)OCO2 ... inactive
CCCCCOC(=O)COc1cc(N2C(=O)C3=C(CCCC3)C2=O)c(F)cc1Cl ... inactive
C#CCOC(=O)[C@@H](C)Oc1ccc(Oc2ncc(Cl)cc2F)cc1 ... inactive

## Input Which outcome was assigned to "CCCOC(=O)NCCCN(C)C" in this test?
## Output inactive

## Input What call does the record list for "Oc1ccc(C(c2ccc(O)cc2)C(Cl)(Cl)Cl)cc1" ?
## Output active

---

Molecular target: X-box-binding protein 1 (Homo sapiens) (UniProt P17861)
Sequence (P17861 whole entry, looked up): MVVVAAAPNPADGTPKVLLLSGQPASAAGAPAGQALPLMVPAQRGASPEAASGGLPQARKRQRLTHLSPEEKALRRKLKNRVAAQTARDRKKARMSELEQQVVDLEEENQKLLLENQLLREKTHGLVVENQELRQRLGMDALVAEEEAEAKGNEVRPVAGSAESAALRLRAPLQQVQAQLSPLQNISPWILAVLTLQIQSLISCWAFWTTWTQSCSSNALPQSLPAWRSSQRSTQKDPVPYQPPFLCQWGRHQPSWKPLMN
Experiment: ATG_Xbp1_CIS: Attagene CIS-FACTORIAL HepG2 Assay for human X-box Binding Protein 1 (XBP1) (AID 2282972)
Details: HepG2 XBP1 cis-element reporter, Attagene multiplex; actives raise or lower the signal
Calls of active or inactive are those of the source. How the source made its calls: active means hit-call score of the fitted dose curve at least 0.9, where 1 is the maximum; inactive means score below 0.9.
Respond only with the outcome that fits, drawn from y (active), n (inactive)

Below, 5 compounds whose answers are already recorded.
COc1nc(C)nc(NC(=O)NS(=O)(=O)c2ccccc2OCCCl)n1 ... n
COC(=O)c1ccc(CNS(C)(=O)=O)cc1S(=O)(=O)NC(=O)Nc1nc(OC)cc(OC)n1 ... n
O=C(Nc1ccc([N+](=O)[O-])cc1Cl)c1cc(Cl)ccc1O ... y
CCNc1nc(N)nc(Cl)n1 ... n
COC(=O)c1ccccc1C(=O)O ... n

## Input Could you check what this test reported for CCCCOC(=O)C(C)Oc1ccc(Oc2ccc(C(F)(F)F)cn2)cc1 (configuration not stated) ?
## Output n

## Input Which outcome was assigned to CCOC(=O)C(C)Oc1ccc(Oc2nc3ccc(Cl)cc3o2)cc1 (configuration not stated) in this test?
## Output n

## Input Could you kindly confirm the outcome this assay logged for "O=C(O)c1ccccc1" ?
## Output n

## Input Hello, I am checking results. What call was entered for C[C@]12CC[C@@H]3c4ccc(O)cc4C[C@@H](CCCCCCCCCS(=O)CCCC(F)(F)C(F)(F)F)[C@H]3[C@@H]1CC[C@@H]2O (some centres not stated) ?
## Output n

## Input For this compound, state the assay outcome: "Cc1nn(C)c(Oc2ccccc2)c1C=NOCc1ccc(C(=O)OC(C)(C)C)cc1"
## Output y

## Input Look up the recorded call for "CCCCOC(=O)[C@@H](C)Oc1ccc(Oc2ccc(C(F)(F)F)cn2)cc1" in this test.
## Output n

## Input # lookup: test call for CC1(C)C(C=C(Cl)Cl)C1C(=O)OCc1cccc(Oc2ccccc2)c1 (configuration not stated)
## Output n

## Input Write down the call the test reported for this compound. Item: CCCCC(CC)COC(=O)c1ccccc1C(=O)O (configuration not stated)
## Output n

## Input Could you check what this test reported for "O=C(O)C1(C(=O)Nc2ccc(Cl)cc2Cl)CC1" ?
## Output n

## Input Record lookup: outcome of this test for "CCN(Cc1c(F)cccc1Cl)c1c([N+](=O)[O-])cc(C(F)(F)F)cc1[N+](=O)[O-]" ?
## Output n

## Input Name the outcome recorded for "COc1c(Cl)ccc(Cl)c1C(=O)O" in the assay.
## Output n

## Input Per the records of this test, what outcome belongs to "N[C@@H](Cc1cc(I)c(Oc2ccc(O)c(I)c2)c(I)c1)C(=O)O" ?
## Output n

## Input Could you check what this test reported for "C#C[C@]1(O)CC[C@H]2[C@@H]3CCC4=CC(=O)CC[C@@H]4[C@H]3CC[C@@]21CC" ?
## Output n

## Input What did this assay record as the result for CCCCCCC(C)OC(=O)COc1nc(F)c(Cl)c(N)c1Cl (configuration not stated) ?
## Output n

## Input # outcome recorded in this test, key = C=CCOC(Cn1ccnc1)c1ccc(Cl)cc1Cl (configuration not stated)
## Output n

## Input Given "C[C@]12C[C@H](O)[C@H]3[C@@H](CCC4=CC(=O)CC[C@@]43C)[C@@H]1CC[C@@H]2C(=O)CO" , state the outcome it received in this test.
## Output n

## Input Fill in: this test's call for "CCCCOCCOCCOCc1cc2c(cc1CCC)OCO2" is ___
## Output n

---

Assay: ATG_CMV_CIS: Attagene CIS-FACTORIAL HepG2 Assay for human CMV (Internal Marker) (AID 2282928);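 also: endpoint acts as a background internal control marker rather than a target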
Conditions: HepG2 CMV promoter reporter, transcription factor profiling; actives raise or lower the signal
Calls of active or inactive are those of the source. The calls were made as follows: active = hit-call score of the fitted dose curve at least 0.9, where 1 is the maximum; inactive = score below 0.9.
# valid calls are YES for active, NO for inactive; nothing else

Reference set, count: 10
CCSC(=O)N(CC(C)C)CC(C)C ... NO
CCCCOCCOCCOCc1cc2c(cc1CCC)OCO2 ... YES
C#CCOC(=O)[C@@H](C)Oc1ccc(Oc2ncc(Cl)cc2F)cc1 ... NO
c1ccc2[nH]c(-c3cscn3)nc2c1 ... NO
CCN(Cc1c(F)cccc1Cl)c1c([N+](=O)[O-])cc(C(F)(F)F)cc1[N+](=O)[O-] ... YES
C=CCOC(Cn1ccnc1)c1ccc(Cl)cc1Cl (stereo unspecified) ... YES
CC(C)(C)[C@@H](O)[C@@H](Cc1ccc(Cl)cc1)n1cncn1 ... NO
O=C(Nc1ccc([N+](=O)[O-])cc1Cl)c1cc(Cl)ccc1O ... YES
CCOC(=O)COc1cc(-n2ncc(C(F)(F)F)c(C)c2=O)c(F)cc1Cl ... NO
COC(=O)c1ccc(CNS(C)(=O)=O)cc1S(=O)(=O)NC(=O)Nc1nc(OC)cc(OC)n1 ... NO

Please find the next compound below.
## Input Could you kindly confirm the outcome this assay logged for "CCCOC(=O)c1ccc(C(=O)OCCC)nc1" ?
## Output NO

---

Target: human Caspase 8 (CASP8), CASP8 (gene 841)
Assay: NVS_ENZ_hCASP8: NovaScreen (NVS) Enzymatic Assay for human Caspase 8 (CASP8) (AID 2283146)
Results filed as inconclusive are left out. Calls of active or inactive are those of the source. How the source made its calls: active means hit-call score of the fitted dose curve at least 0.9, where 1 is the maximum; inconclusive means response in the unintended direction; inactive means score below 0.9.
measurement_type: AC50

Past entries and their recorded results:
S=C(S)NCCNC(=S)S.[Mn+2].[S-]C([S-])=NCCN=C([S-])[S-].[Zn+2] ... inactive
C[C@]12CC[C@@H]3c4ccc(O)cc4C[C@@H](CCCCCCCCCS(=O)CCCC(F)(F)C(F)(F)F)[C@H]3[C@@H]1CC[C@@H]2O (stereo not given in full) ... inactive
S=C([S-])NCCNC(=S)[S-].[Mn+2] ... inactive
O=C(O)C1(C(=O)Nc2ccc(Cl)cc2Cl)CC1 ... 7.55 µM (active)

## Input Please give measured AC50 of the following entry: "CC(C)(c1ccc(O)cc1)c1ccc(O)cc1"
## Output inactive

---

Experiment: Tanguay_ZF_120hpf_TR_legacy: (Legacy) Oregon State University Tanguay Lab 120 Hour Post-fertilization zebrafish Assay for Touch Response (AID 2283667)
Description: Tanguay_ZF_120hpf_legacy is a whole embryo, multiplexed endpoint assay using zebrafish larvae exposed for 120 hours post fertilization on a 96-well plate.Tanguay_ZF_120hpf_TR_legacy is one of one assay component(s) measured or calculated from the Tanguay_ZF_120hpf_legacy assay. […] This assay endpoint, Tanguay_ZF_120hpf_TR_legacy, was analyzed in the positive analysis fitting direction relative to DMSO as the negative control and baseline of activity. […]
Records with an inconclusive call do not appear. Calls of active or inactive are those of the source. Rule for the calls: active = hit-call score of the fitted dose curve at least 0.9, where 1 is the maximum; inconclusive = response in the unintended direction; inactive = score below 0.9.
Your reply should match one of these outcome classes. label 1 for active, label 0 for inactive

Would you please look over these solved cases?
CCCN(CCC)C(=O)SCC ... label 0
COC(=O)c1ccccc1C(=O)O ... label 0
CCCCOC(=O)C(C)Oc1ccc(Oc2ccc(C(F)(F)F)cn2)cc1 (centres undefined) ... label 0
N[C@@H](Cc1cc(I)c(Oc2ccc(O)c(I)c2)c(I)c1)C(=O)O ... label 1
CCCCOCCOCCOCc1cc2c(cc1CCC)OCO2 ... label 0

## Input Per the assay record, what outcome was assigned to CCCCCCC(C)OC(=O)COc1nc(F)c(Cl)c(N)c1Cl (centres undefined) ?
## Output label 0

## Input Record request — test call for "CCCOC(=O)NCCCN(C)C"
## Output label 0

## Input # lookup: test call for CCCCC(CC)CN1C(=O)C2C3C=CC(C3)C2C1=O (centres undefined)
## Output label 0

---

Experiment: Tanguay_ZF_120hpf_AXIS_legacy: (Legacy) Oregon State University Tanguay Lab 120 Hour Post-fertilization zebrafish Assay for Body Axis Malformation (AID 2283635)
Records with an inconclusive call do not appear. The source made the active and inactive calls. The calls were made as follows: active = hit-call score of the fitted dose curve at least 0.9, where 1 is the maximum; inconclusive = response in the unintended direction; inactive = score below 0.9.
Please state which outcome applies, choosing from TRUE for active, FALSE for inactive

CCCCOCCOCCOCc1cc2c(cc1CCC)OCO2 ... TRUE
CC(C)(C)[C@@H](O)[C@@H](Cc1ccc(Cl)cc1)n1cncn1 ... TRUE
c1ccc2[nH]c(-c3cscn3)nc2c1 ... FALSE
COc1c(Cl)ccc(Cl)c1C(=O)O ... FALSE
c1ccc(Nc2ccccc2)cc1 ... FALSE
O=C(Nc1ccc([N+](=O)[O-])cc1Cl)c1cc(Cl)ccc1O ... FALSE

Please turn your attention to the following entry.
## Input Dear colleague, could you share the recorded outcome for CCCCCCC(C)OC(=O)COc1nc(F)c(Cl)c(N)c1Cl (configuration not stated) when you have a moment?
## Output FALSE
